Recorded ED50, one value per entry.
test system: Streptococcus pyogenes; test: Experimental bacterial infection in mice, ED50; assay type: in vivo; conditions: two doses, administered subcutaneously
Output spec: scalar in mg/kg/2, unitless text.

compound	subject of test	ED50 / mg/kg/2
CCCCCCCC(=O)NC1(C)CC(OC2C(Oc3c4cc5cc3Oc3ccc(cc3Cl)C(O)C3NC(=O)C(NC(=O)C5NC(=O)C(CC(N)=O)NC(=O)C(NC(=O)C(CC(C)C)NC)C(O)c5ccc(c(Cl)c5)O4)c4ccc(O)c(c4)-c4c(O)cc(O)cc4C(C(=O)O)NC3=O)OC(CO)C(O)C2O)OC(C)C1O (centres unmarked) [Compound 3, N^van --(1-oxo-n-octyl)vancomycin]	Streptococcus pyogenes	4.4
CCCCCC(=O)NC1(C)CC(OC2C(Oc3c4cc5cc3Oc3ccc(cc3Cl)C(O)C3NC(=O)C(NC(=O)C5NC(=O)C(CC(N)=O)NC(=O)C(NC(=O)C(CC(C)C)NC)C(O)c5ccc(c(Cl)c5)O4)c4ccc(O)c(c4)-c4c(O)cc(O)cc4C(C(=O)O)NC3=O)OC(CO)C(O)C2O)OC(C)C1O (centres unmarked) [Compound 2, N^van --(1-oxo-n-hexyl)vancomycin]	Streptococcus pyogenes	12.9
CCCCCCCCCCCC(=O)NC1(C)CC(OC2C(Oc3c4cc5cc3Oc3ccc(cc3Cl)C(O)C3NC(=O)C(NC(=O)C5NC(=O)C(CC(N)=O)NC(=O)C(NC(=O)C(CC(C)C)NC)C(O)c5ccc(c(Cl)c5)O4)c4ccc(O)c(c4)-c4c(O)cc(O)cc4C(C(=O)O)NC3=O)OC(CO)C(O)C2O)OC(C)C1O (centres unmarked) [Compound 12, N^van --(1-oxo-n-dodecyl)vancomycin]	Streptococcus pyogenes	1.6

Query ED50 on Streptococcus pyogenes for C=CCCCCCCCCC(=O)NC1(C)CC(OC2C(Oc3c4cc5cc3Oc3ccc(cc3Cl)C(O)C3NC(=O)C(NC(=O)C5NC(=O)C(CC(N)=O)NC(=O)C(NC(=O)C(CC(C)C)NC)C(O)c5ccc(c(Cl)c5)O4)c4ccc(O)c(c4)-c4c(O)cc(O)cc4C(C(=O)O)NC3=O)OC(CO)C(O)C2O)OC(C)C1O (centres unmarked) [Compound 9, N^van --(1-oxo-10-n-decenyl)vancomycin]
1.9

Entry CCCC(=O)NC1(C)CC(OC2C(Oc3c4cc5cc3Oc3ccc(cc3Cl)C(O)C3NC(=O)C(NC(=O)C5NC(=O)C(CC(N)=O)NC(=O)C(NC(=O)C(CC(C)C)NC)C(O)c5ccc(c(Cl)c5)O4)c4ccc(O)c(c4)-c4c(O)cc(O)cc4C(C(=O)O)NC3=O)OC(CO)C(O)C2O)OC(C)C1O (centres unmarked) [Compound 1, N^van --(1-oxo-n-butyl)vancomycin] , system Streptococcus pyogenes: what ED50 was measured?
5.5

# get_value(readout= ED50, system= Streptococcus pyogenes) for CCCCCCCCCC(=O)NC1(C)CC(OC2C(Oc3c4cc5cc3Oc3ccc(cc3Cl)C(O)C3NC(=O)C(NC(=O)C5NC(=O)C(CC(N)=O)NC(=O)C(NC(=O)C(CC(C)C)NC)C(O)c5ccc(c(Cl)c5)O4)c4ccc(O)c(c4)-c4c(O)cc(O)cc4C(C(=O)O)NC3=O)OC(CO)C(O)C2O)OC(C)C1O (centres unmarked) [Compound 6, N^van-(1-oxo-n-Decyl)vancomycin]
2.9

Value wanted: ED50 (Streptococcus pyogenes) of entry CCCCCCCCCCCCCC(=O)NC1(C)CC(OC2C(Oc3c4cc5cc3Oc3ccc(cc3Cl)C(O)C3NC(=O)C(NC(=O)C5NC(=O)C(CC(N)=O)NC(=O)C(NC(=O)C(CC(C)C)NC)C(O)c5ccc(c(Cl)c5)O4)c4ccc(O)c(c4)-c4c(O)cc(O)cc4C(C(=O)O)NC3=O)OC(CO)C(O)C2O)OC(C)C1O (centres unmarked) [Compound 14, N^van --(1-oxo-n-tetradecyl)vancomycin]
1.4
